- Method Summary: background-corrected fluorescence of 3'-dye-labeled ssDNA relative to brightest sequence (3'-GCGCG) (fraction); higher = brighter dye fluorescence (less quenching)
- Condition Description: dye: Cy3 (3' terminal)
Class assignment keyed on background-corrected fluorescence, ranges lowest: < 0.5; middle: ≥ 0.5 and < 0.6; highest: ≥ 0.6

Worked set:
>>> df
                              sequence_code  class_label
0  TTTTTGCATGCTGCTGCTGCTTTTTTTTTTTTTTTTAAAA [AAAAT]      highest
1  TTTTTGCAGCATCATGCGCATTTTTTTTTTTTTTTTTGAT [TAGTT]       middle
2  TTTTTTGCTCATGATGCGCATTTTTTTTTTTTTTTAGCAT [TACGA]       middle
3  TTTTTTCAGCATCAGCATGATTTTTTTTTTTTTTTGTGTC [CTGTG]       lowest

Query: Band for the recorded background-corrected fluorescence of TTTTTTCAGCATGCTGAGCATTTTTTTTTTTTTTTGTACT [TCATG] ?
Reply: lowest

Query: Band for the recorded background-corrected fluorescence of TTTTTTCATGATGCTGAGCATTTTTTTTTTTTTTTGCACT [TCACG] ?
Reply: lowest
